target: TR3 (Nur77) (Homo sapiens, UniProt P22736); construct: expressed in transfected cells; host or cells: NIH3T3; experiment: Mammalian two hybrid luciferase reporter system for TR3 ligand search (GAL4-TR3 LBD or full length, NIH3T3 cells, with or without RXRα); assay type: cell-based; details: TR3 LBD fused to GAL4, RXRα added, NIH3T3 luciferase; ◯ with concentration, X
Sequence (P22736 360-598): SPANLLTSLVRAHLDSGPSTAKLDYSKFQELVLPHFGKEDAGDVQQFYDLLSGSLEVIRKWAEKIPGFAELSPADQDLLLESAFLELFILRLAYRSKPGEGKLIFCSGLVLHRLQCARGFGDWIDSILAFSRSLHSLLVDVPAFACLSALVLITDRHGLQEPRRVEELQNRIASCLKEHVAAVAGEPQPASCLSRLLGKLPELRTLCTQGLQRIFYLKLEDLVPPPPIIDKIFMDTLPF
Sequence (P19793 whole entry partner, the tested form may be a part): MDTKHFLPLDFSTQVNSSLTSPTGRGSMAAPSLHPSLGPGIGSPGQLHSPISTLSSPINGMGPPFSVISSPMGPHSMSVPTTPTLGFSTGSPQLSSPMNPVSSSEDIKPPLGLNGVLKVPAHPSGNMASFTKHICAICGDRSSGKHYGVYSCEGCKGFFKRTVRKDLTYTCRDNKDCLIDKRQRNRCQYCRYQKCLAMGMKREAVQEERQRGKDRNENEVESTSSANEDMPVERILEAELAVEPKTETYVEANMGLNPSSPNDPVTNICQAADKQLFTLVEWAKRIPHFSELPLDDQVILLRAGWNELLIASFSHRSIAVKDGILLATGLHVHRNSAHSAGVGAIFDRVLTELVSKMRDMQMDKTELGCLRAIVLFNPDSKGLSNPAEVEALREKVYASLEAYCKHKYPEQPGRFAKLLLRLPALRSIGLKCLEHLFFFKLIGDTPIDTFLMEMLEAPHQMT
Assay Metric: Nur77 LBD-ligand activity RXR(+)

{"Compound": "CCCCC[C@@](C)(O)/C=C/[C@H]1C=CC(=O)[C@@H]1C/C=C\\CCCC(=O)O [15(R)-15-methylProstaglandin A2]", "Value Reported": "◯10 μM"}
{"Compound": "CCCCC[C@H](O)/C=C/[C@H]1C=CC(=O)[C@@H]1C/C=C\\CCCC(=O)O [Prostaglandin A2]", "Value Reported": "◯10 μM"}
{"Compound": "CCCCC[C@@H](O)/C=C/[C@H]1C=CC(=O)[C@@H]1CCCCCCC(=O)O [15-epiProstaglandin A1]", "Value Reported": "◯10 μM"}
{"Compound": "CCCCC[C@H](O)/C=C/[C@H]1C=CC(=O)[C@@H]1CCCCCCC(=O)O [Prostaglandin A1]", "Value Reported": "◯10 μM"}
{"Compound": "O=C(O)CCC/C=C\\C[C@H]1C(=O)C=C[C@@H]1/C=C/[C@@H](O)CCc1ccccc1 [17-phenyl trinorProstaglandin A2]", "Value Reported": "◯10 μM"}

Query block: # get_value(readout='Nur77 LBD-ligand activity RXR(+)', item= CCCCC[C@H](O)/C=C/[C@H]1C=CC(=O)[C@H]1CCCCCCC(=O)O [8-isoProstaglandin A1] )
Result block: ◯10 μM
